Target Or Test System: UniProt P00523
Method Summary: Inhibition of chicken c-Src using IYGEFKKK peptide as a substrate and [32P]ATP by […]
Measurement Type: IC50

Compound | Target Or Test System | Result
C=CS(=O)(=O)Nc1cccc(Cc2nn(C(C)C)c3ncnc(N)c23)c1 | UniProt P00523 | > 5 µM

---

Target Or Test System: Mitogen-activated protein kinase 1 (Homo sapiens, UniProt P28482)
Sequence (P28482 whole entry): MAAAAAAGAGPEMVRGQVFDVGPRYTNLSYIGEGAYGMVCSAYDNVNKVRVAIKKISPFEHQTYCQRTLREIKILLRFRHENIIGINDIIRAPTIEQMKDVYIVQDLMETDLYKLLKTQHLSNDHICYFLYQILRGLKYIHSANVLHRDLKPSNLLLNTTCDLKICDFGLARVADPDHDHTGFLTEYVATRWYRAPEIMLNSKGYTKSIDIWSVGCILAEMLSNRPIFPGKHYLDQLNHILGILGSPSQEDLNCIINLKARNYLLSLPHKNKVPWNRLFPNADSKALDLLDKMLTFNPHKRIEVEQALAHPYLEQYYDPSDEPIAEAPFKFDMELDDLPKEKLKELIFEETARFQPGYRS
Method Summary: Inhibition of Erk2
pIC50: −log10 of the molar value.

Compound | Target Or Test System | pIC50
COc1cc(O)c2c(c1)/C=C/C[C@H](O)[C@H](O)C(=O)/C=C\C[C@H](C)OC2=O | Mitogen-activated protein kinase 1 (Homo sapiens, UniProt P28482) | 7.10
